Every entry's value here was drawn from the supplement of paper PMC10883282.

- Tested on: SW684
- RUN DESCRIPTION: relative viability vs DMSO control (72 h) (fraction); higher = more viable cells
- CONDITION SET: 3.333 µM
Quick reference: relative viability of the listed items.
MEASURE NAME: relative viability

INSERT INTO results (compound, measure_name, assay_result) VALUES
  ('Cc1cc2cc(Oc3ccnc(Nc4cccc(CS(=O)(=O)NCCN(C)C)c4)n3)ccc2[nH]1 [Sulfatinib]', 'relative viability', 0.995),
  ('C[C@H](Nc1ncnc2nc[nH]c12)c1cc2cccc(Cl)c2c(=O)n1-c1ccccc1 [Duvelisib]', 'relative viability', 0.501),
  ('Cc1cccc(-c2nn3c(c2-c2ccnc4ccc(C(N)=O)cc24)CCC3)n1 [Galunisertib]', 'relative viability', 1.08),
  ('O=C(Nc1nc2cccc(-c3ccc(CN4CCS(=O)(=O)CC4)cc3)n2n1)C1CC1 [Filgotinib]', 'relative viability', 1.16),
  ('CC1(COc2ccc3c(c2)ncn3-c2ccc3cccc(N4CCC(N)CC4)c3n2)COC1 [Crenolanib]', 'relative viability', 0.978),
  ('CCN1C(=O)N(c2c(F)c(OC)cc(OC)c2F)Cc2cnc3[nH]c(CN4CCOCC4)cc3c21 [Pemigatinib]', 'relative viability', 0.971),
  ('O=S(=O)(c1cccc2cnccc12)N1CCCNCC1 [Fasudil]', 'relative viability', 0.895),
  ('CNC(=O)c1nnc(NC(=O)C2CC2)cc1Nc1cccc(-c2ncn(C)n2)c1OC', 'relative viability', 1.14);
